Hey, just so you know, these numbers are from paper PMC12069340.

TEST PROTOCOL: in vitro
ASSAY CONDITIONS: human, A549 cells
Counter-ions that a name gives are not always drawn.
MEASURED METRIC: CC50 (µM)

[[record]]
molecule = "O=C(c1ccc(OCCCc2cnc[nH]2)cc1)C1CC1"
endpoint_value = 556

[[record]]
molecule = "CC(COc1ccccc1)NC(C)C(O)c1ccc(O)cc1 (centres unmarked) [Isoxsuprine, Isoxsuprine hydrochloride]"
endpoint_value = 530


###

Tested on: A/PuertoRico/8/1934 (H1N1) virus
TEST PROTOCOL: microbe, parasite or virus in culture
Assay type: cell-based, influenza A virus
ASSAY CONDITIONS: Influenza A virus, H1N1, U-937, 48 h
pIC50: −log10 of the molar value. Counter-ions that a name gives are not always drawn.
Form field: pIC50 (one value per entry).
MEASURED METRIC: pIC50

[[record]]
compound = "CCCN(CCc1cccs1)[C@H]1CCc2c(O)cccc2C1 [Rotigotine]"
endpoint_value = 5.90

[[record]]
compound = "CC(COc1ccccc1)NC(C)C(O)c1ccc(O)cc1 (stereo not drawn) [Isoxsuprine, Isoxsuprine hydrochloride]"
endpoint_value = 5.82

[[record]]
compound = "OCc1cc(C(O)CNCCCCCCOCCCCc2ccccc2)ccc1O (stereo not drawn) [Salmeterol Xinafoate]"
endpoint_value = 5.36


###

Tested on: A/PuertoRico/8/1934 (H1N1) virus
TEST PROTOCOL: microbe, parasite or virus in culture
Assay type: cell-based, influenza A virus
ASSAY CONDITIONS: Influenza A virus, H1N1, U-937, 48 h; read-out: NA Inhibition (%)
Where a name gives a salt, the structure may show the parent alone.
MEASURED METRIC: inhibition at 20 µM (%)

[[record]]
compound = "COc1cc2nc(N3CCN(C(=O)C4CCCO4)CC3)nc(N)c2cc1OC (stereo not drawn)"
measured_metric = "inhibition at 20 µM"
endpoint_value = -47.2

[[record]]
compound = "N=C(N)NC(=O)Cc1c(Cl)cccc1Cl [Guanfacine Hydrochloride]"
measured_metric = "inhibition at 20 µM"
endpoint_value = 11

[[record]]
compound = "OC(CCCN1CCCCC1)(c1ccccc1)c1ccccc1 [Diphenidol HCl]"
measured_metric = "inhibition at 20 µM"
endpoint_value = 32.3

[[record]]
compound = "O=C1c2cccc3c2[C@H](CCC3)CN1[C@@H]1CN2CCC1CC2 [Palonosetron HCl]"
measured_metric = "inhibition at 20 µM"
endpoint_value = -5.5

[[record]]
compound = "COc1ccccc1N1CCN(CCN2C(=O)CC3(CCCC3)CC2=O)CC1"
measured_metric = "inhibition at 20 µM"
endpoint_value = 23.8

[[record]]
compound = "CC[N+](CC)(CC)CCOc1cccc(OCC[N+](CC)(CC)CC)c1OCC[N+](CC)(CC)CC [Gallamine Triethiodide]"
measured_metric = "inhibition at 20 µM"
endpoint_value = -9

[[record]]
compound = "C[C@@H]1C(=O)O[C@H]2C[C@@]34[C@H]5C[C@@H](C(C)(C)C)[C@]36[C@@H](OC(=O)[C@@H]6O)O[C@@]4(C(=O)O5)[C@]21O [Ginkgolide A]"
measured_metric = "inhibition at 20 µM"
endpoint_value = 23.3

[[record]]
compound = "C[N+](C)(C)CCCCCC[N+](C)(C)C [Hexamethonium Bromide]"
measured_metric = "inhibition at 20 µM"
endpoint_value = -10.2

[[record]]
compound = "C[N+]1(C)[C@@H]2C[C@@H](OC(=O)C(O)(c3cccs3)c3cccs3)C[C@H]1[C@@H]1O[C@@H]12 [Tiotropium Bromide hydrate]"
measured_metric = "inhibition at 20 µM"
endpoint_value = -34.7

[[record]]
compound = "CN1CCC(=C2c3ccccc3CC(=O)c3sccc32)CC1 [Ketotifen Fumarate]"
measured_metric = "inhibition at 20 µM"
endpoint_value = -4.7

[[record]]
compound = "COc1ccc2cccc(CCNC(C)=O)c2c1"
measured_metric = "inhibition at 20 µM"
endpoint_value = 18.4

[[record]]
compound = "COc1cc2nc(N3CCN(C(=O)c4ccco4)CC3)nc(N)c2cc1OC [Prazosin HCl]"
measured_metric = "inhibition at 20 µM"
endpoint_value = -45.6

[[record]]
compound = "COc1cc2c(cc1OC)[C@@H]1Cc3ccc(OC)c(OC)c3CN1CC2"
measured_metric = "inhibition at 20 µM"
endpoint_value = 17.4

[[record]]
compound = "CCN(CC)CC(=O)Nc1c(C)cccc1C"
measured_metric = "inhibition at 20 µM"
endpoint_value = 5.1

[[record]]
compound = "COc1ccc(C(CN(C)C)C2(O)CCCCC2)cc1 (stereo not drawn)"
measured_metric = "inhibition at 20 µM"
endpoint_value = -1.3

[[record]]
compound = "CCOc1cc(N)c(Cl)cc1C(=O)NCC1CN(Cc2ccc(F)cc2)CCO1 (stereo not drawn) [Mosapride Citrate]"
measured_metric = "inhibition at 20 µM"
endpoint_value = 32.4

[[record]]
compound = "CN1[C@@H]2CC[C@H]1C[C@@H](OC(=O)C(CO)c1ccccc1)C2 (stereo partly drawn)"
measured_metric = "inhibition at 20 µM"
endpoint_value = -5.8

[[record]]
compound = "CC(NCCc1ccc(O)cc1)C(O)c1ccc(O)cc1 (stereo not drawn) [Ritodrine HCl]"
measured_metric = "inhibition at 20 µM"
endpoint_value = -20.6

[[record]]
compound = "CC(C)COc1ccc(CNC(=O)N(Cc2ccc(F)cc2)C2CCN(C)CC2)cc1"
measured_metric = "inhibition at 20 µM"
endpoint_value = 18.1

[[record]]
compound = "CN(C)CC(c1ccc(O)cc1)C1(O)CCCCC1 (stereo not drawn) [Desvenlafaxine Succinate]"
measured_metric = "inhibition at 20 µM"
endpoint_value = 11

[[record]]
compound = "O=C(O)c1cccnc1Nc1cccc(C(F)(F)F)c1"
measured_metric = "inhibition at 20 µM"
endpoint_value = 23.7

